Target: T1, hFc-hFasL (fusion protein of human Fc fragment and human FasL extracellular region) (human, UniProt P48023 134-281)
T1 sequence: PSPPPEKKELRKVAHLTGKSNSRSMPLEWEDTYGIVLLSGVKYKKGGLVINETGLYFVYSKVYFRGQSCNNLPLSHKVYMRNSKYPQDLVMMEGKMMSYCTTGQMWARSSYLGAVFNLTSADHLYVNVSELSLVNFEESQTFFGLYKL
Test: cell-based or functional assay
HepG2 IC50(nM), FasL antigen-induced cell apoptosis: recorded values
Please respond with the number in nM and leave the unit unwritten.

Consider the worked cases shown below.
binder	data_value
humFL-M54-14 (antibody, human IgG4, V domains shown) VH: QVQLVQSGAEVKKPGSSVKVSCKASGYTFTRFDISWVRQAPGQGLEWMGWIFPGDGSSQYNENFKGRVTLTTDKSTSTAYMELSSLRSEDTAVYFCARSLISTAMFDHWGQGTLVTVSS VL: EIVMTQSPATLSVSPGERATLSCRASKSVSTSDFSYIHWYQQKPGQAPRLLIYLASHLESGIPARFSGSGSGTEFTLTISSLQSEDFAVYYCQHSRELPRTFGQGTKVEIK	0.023
humFL-M54-5 (antibody, human IgG4, V domains shown) VH: QVQLVQSGAEVKKPGSSVKVSCKASGYTFTRFDISWVRQAPGQGLEWMGWIFPGDGSSQYNENFKGRVTITADKSTSTAYMELSSLRSEDTAVYFCARSLISTAMFDHWGQGTLVTVSS VL: EIVMTQSPATLSVSPGERATLSCRASKSVSTSDFSYIHWYQQKPGQPPRLLIFLASHLESGIPARFSGSGSGTEFTLTISSLQSEDFAVYYCQHSRELPRTFGQGTKVEIK	0.027
humFL-M54-9 (antibody, human IgG4, V domains shown) VH: QVQLVQSGAEVKKPGSSVKVSCKASGYTFTRFDISWVRQAPGQGLEWMGWIFPGDGSSQYNENFKGRVTLTTDKSTSTAYMELSSLRSEDTAVYFCARSLISTAMFDHWGQGTLVTVSS VL: EIVMTQSPATLSVSPGERATLSCRASKSVSTSDFSYIHWYQQKPGQPPRLLIYLASHLESGIPARFSGSGSGTEFTLTISSLQSEDFAVYYCQHSRELPRTFGQGTKVEIK	0.026
humFL-M54-13 (antibody, human IgG4, V domains shown) VH: QVQLVQSGAEVKKPGSSVKVSCKASGYTFTRFDISWVRQAPGQGLEWMGWIFPGDGSSQYNENFKGRATITTDKSTSTAYMELSSLRSEDTAVYFCARSLISTAMFDHWGQGTLVTVSS VL: EIVMTQSPATLSVSPGERATLSCRASKSVSTSDFSYIHWYQQKPGQAPRLLIYLASHLESGIPARFSGSGSGTEFTLTISSLQSEDFAVYYCQHSRELPRTFGQGTKVEIK	0.029

Q: Given the binder humFL-M54-10 (antibody, human IgG4, V domains shown) VH: QVQLVQSGAEVKKPGSSVKVSCKASGYTFTRFDISWVRQAPGQGLEWMGWIFPGDGSSQYNENFKGRVTITADKSTSTAYMELSSLRSEDTAVYFCARSLISTAMFDHWGQGTLVTVSS VL: EIVMTQSPATLSVSPGERATLSCRASKSVSTSDFSYIHWYQQKPGQPPRLLIYLASHLESGIPARFSGSGSGTEFTLTISSLQSEDFAVYYCQHSRELPRTFGQGTKVEIK , what is its reported HepG2 IC50(nM), FasL antigen-induced cell apoptosis?
A: 0.034

Q: Bench note: what HepG2 IC50(nM), FasL antigen-induced cell apoptosis did FL-M54 (antibody, V domains shown, Chimeric full-length antibody, tested as human IgG4 / human kappa) VH: EVQLQQSGVELVKPGASVKLSCKASGYTFTRFDISWVRQRPEQGLEWIGWIFPGDGSSQYNENFKGKATLTTDKSSGTAYMQLNRLTSEDSAVYFCARSLISTAMFDHWGQGTTLTVSS VL: DIVMTQSPASLAVSLGQRATISCRASKSVSTSDFSYIHWYQQKPGQPPKLLIFLASHLESGVPARFSGSGSGTDFTLNIHPVEEEDAATYYCQHSRELPRTFGGGTKLEIK show?
A: 0.023

Q: Recorded HepG2 IC50(nM), FasL antigen-induced cell apoptosis of humFL-M54-3 (antibody, human IgG4, V domains shown) VH: QVQLVQSGAEVKKPGSSVKVSCKASGYTFTRFDISWVRQAPGQGLEWMGWIFPGDGSSQYNENFKGRATITTDKSTSTAYMELSSLRSEDTAVYFCARSLISTAMFDHWGQGTLVTVSS VL: EIVMTQSPATLSVSPGERATLSCRASKSVSTSDFSYIHWYQQKPGQPPRLLIFLASHLESGIPARFSGSGSGTEFTLTISSLQSEDFAVYYCQHSRELPRTFGQGTKVEIK , please.
A: 0.035
